Data credit: patent US6518290B1

# test-system: human PPAR gamma (Homo sapiens, UniProt P37231)
# Sequence (P37231 238-503 limits assumed): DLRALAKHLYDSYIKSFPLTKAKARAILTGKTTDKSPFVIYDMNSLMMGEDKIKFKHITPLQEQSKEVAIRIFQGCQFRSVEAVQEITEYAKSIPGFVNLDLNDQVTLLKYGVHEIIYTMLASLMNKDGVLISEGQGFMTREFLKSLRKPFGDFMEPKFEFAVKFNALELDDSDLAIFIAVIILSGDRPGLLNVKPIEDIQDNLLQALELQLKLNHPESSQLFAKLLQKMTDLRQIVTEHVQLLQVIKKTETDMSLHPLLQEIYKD
# protocol-description: PPAR transient transfection (transactivation) assay in CV-1 cells, hPPAR gamma
# measurement-conditions: PPAR LBD-GAL4 chimera, SPAP reporter, 24 h with compound, read-out: human γEC50
assay-endpoint: EC50

# example entries with known answers
1. Cc1nc(-c2ccc(C(F)(F)F)cc2)oc1C(=O)NCc1ccc(OC(C)(C)C(=O)O)cc1; ≥ 10 µM
2. CCc1ccc(-c2nc(C)c(C(=O)NCc3ccc(OC(C)(C)C(=O)O)cc3)s2)cc1; 8.82 µM
3. Cc1nc(-c2ccc(Cl)cc2)sc1C(=O)NCc1ccc(OC(C)(C)C(=O)O)cc1; ≥ 10 µM

Next compound, please.
For this compound ( Cc1nc(-c2ccc(F)cc2)sc1C(=O)NCc1ccc(OC(C)(C)C(=O)O)cc1 ), measured EC50 is ≥ 10 µM
